Data credit: PubChem BioAssay (NCI)

# Test system: SK-MEL-28 melanoma
# test-description: NCI-60 one-dose screen, 48 h (100 = growth as untreated, 0 = no growth, -100 = all killed)
# details: 10 µM unless noted
About 83,000 compounds went through this panel and 20% of them were active in at least one assay; those are over-represented in the sample as a whole.
endpoint: growth (%)
Answers are plain numbers, in %.

Illustrative cases are given below, each with its answer.
compound	growth / %
NS(=O)(=O)c1ccc(-n2nc(-c3ccc(Cl)cc3)c3ccccc3c2=O)cc1	117
c1ccc(OCc2nnc(-c3ccc(Oc4ccccc4)cc3)o2)cc1	116
CN(C(=O)NCc1cccc(F)c1Cl)[C@H](COC(=O)Nc1cc2ccccc2cn1)CC(O)CO (stereo partly drawn)	119
CN1CCN(Cc2ccc(NC(=O)c3ccc(C(C)(C)C)c(C#Cc4cnc5cccnn45)c3)cc2C(F)(F)F)CC1	-68.8

Batch of 4 compounds: report growth for each.
1. COc1cc(/C=C2\C(=O)Nc3ccc(Br)cc32)cc(OC)c1OC
2. Cc1[nH]c(C(=O)Nc2ccc(C(=O)NCCN)cc2OC(C)C)c(Cl)c1Cl
3. CCC12CCC[N+]3([O-])CCC4(C(=Nc5ccccc54)C(O)(C(=O)OC)C1)C23 (stereo not drawn)
4. N#Cc1c(Nc2cccc(Cl)c2)sc(C(=O)c2cc3cc(Cl)ccc3o2)c1N

OUT:
1: 80.2; 2: 70.9; 3: 94.5; 4: 94.3

Batch of 6 compounds: report growth for each.
1. C=C1C(=O)O[C@H]2[C@H]1CC/C(COC(=O)CCSSCCC(=O)OC/C1=C/CC[C@@]3(C)O[C@H]3[C@H]3OC(=O)C(=C)[C@@H]3CC1)=C\CC[C@@]1(C)O[C@@H]21
2. Cc1cccc(NCc2cn(-c3ccc(C(=O)O)cc3)nc2-c2ccc(C(=O)O)cc2)n1
3. Cc1ccc(-c2nc(SCC(=O)Nc3nc(-c4ccc(Cl)cc4)cs3)[nH]c(=O)c2C#N)cc1
4. CNCCCC12CCC(c3ccccc31)c1ccccc12
5. COc1ccc2sc3c(NCCCN(C)C)nc4ccccc4c3c(=O)c2c1
6. S=C(c1cccs1)N1CCN(c2cccc(Cl)c2)CC1

OUT:
-42.8
104
108
87.4
-73.1
104

Batch of 7 compounds: report growth for each.
1. O=C(/C=C/c1cccc2ccccc12)c1ccc(NC(=O)c2ccccc2CN2C(=O)c3ccccc3C2=O)cc1
2. O=C1NC(=O)C(Cn2cnc3ccccc32)N1 (stereo not drawn)
3. CCN(CC)S(=O)(=O)c1ccc(NC(=O)CSc2nnc(C)n2-c2ccccc2)cc1
4. O=C(Cc1ccc2c(c1)OCCO2)Nc1nc2ccc(F)cc2s1
5. CS(=O)(=O)N(c1cc(-c2ccc3ncnc(Nc4ccc(F)c(Cl)c4)c3c2)cnc1Cl)S(C)(=O)=O
6. CN1CCN(c2ccc(-c3cc4c(Nc5ccc(F)c(Cl)c5)ncnn4c3)cn2)CC1
7. CNc1ccc(Nc2cccc(C)c2)c2c1C(=O)c1ccccc1C2=O

OUT:
1. 96.7
2. 104
3. 108
4. 111
5. 23.5
6. 87.6
7. 114

====

# Test system: DU-145 prostate
# test-description: NCI-60 one-dose screen, 48 h (100 = growth as untreated, 0 = no growth, -100 = all killed)
# details: 10 µM unless noted
About 83,000 compounds went through this panel and 20% of them were active in at least one assay; those are over-represented in the sample as a whole.
endpoint: growth (%)
Answers are plain numbers, in %.

Illustrative cases are given below, each with its answer.
In [3]: df
Out[3]:
                                   molecule  target_under_test  result
0  N#Cc1c(-c2ccccc2)nc(SCC(=O)Nc2nc(-c3ccc(Cl)cc3)cs2)[nH]c1=O    DU-145 prostate     113
1     c1cc(NCCc2ccncc2)nc(-n2cnc3ccccc32)c1    DU-145 prostate    85.7
2  CN(C)CCN1CCN(c2ncccc2C2Nc3ccccc3-n3cccc32)CC1 (stereo not given)    DU-145 prostate     110
3  O=c1c2cccc(Cl)c2sc2c(NCCCNCCO)nc3ccccc3c12    DU-145 prostate    13.9

Kindly review the next molecule as well.
IN: Would you kindly share the measured growth for "COc1cc(C(=O)/C=C/c2c(Cl)nc3sccn23)cc(OC)c1OC" ?
OUT: 83.8
